pEC50: recorded values
- measurementTarget: OR2W1 L202S (Homo sapiens, UniProt Q9Y3N9, L202S)
- Construct: 39aa rho-tag; expressed in transfected cells; host or cells: NxG 108CC15 or HEK-293 cells
- Sequence (Q9Y3N9 whole entry L202S): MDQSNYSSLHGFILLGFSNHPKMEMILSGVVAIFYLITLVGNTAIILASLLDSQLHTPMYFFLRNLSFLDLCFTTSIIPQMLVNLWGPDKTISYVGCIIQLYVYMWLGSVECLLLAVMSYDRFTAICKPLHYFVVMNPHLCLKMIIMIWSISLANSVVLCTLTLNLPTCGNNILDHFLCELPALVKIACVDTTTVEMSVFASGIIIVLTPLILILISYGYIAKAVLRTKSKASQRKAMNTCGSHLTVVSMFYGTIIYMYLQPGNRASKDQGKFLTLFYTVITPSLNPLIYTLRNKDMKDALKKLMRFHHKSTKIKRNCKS
- protocolDetails: GloSensor assay, OR2W1 L202S
- Format: cell-based
- protocolConditions: 10 µmol/L Cu^2+, read-out: EC50 in the presence of Cu^2+
pEC50: −log10 of the molar value.

{"columns": ["molecule", "pEC50"],
 "data": [
  ["CCCC(S)CCOC(C)=O (centres unmarked) [3-Mercaptohexyl acetate, 3-mercaptohexyl acetate]", 3.51],
  ["SCCc1ccccc1 [2-Phenylethanethiol, 2-phenylethanethiol]", 4.01]
]}

###

- measurementTarget: OR2W1 L202C (Homo sapiens, UniProt Q9Y3N9, L202C)
- Construct: full-length gene-specific forward and reverse primers were added; 39aa rho-tag; expressed in transfected cells; host or cells: NxG 108CC15 or HEK-293 cells
- Sequence (Q9Y3N9 whole entry L202C): as the sequence (Q9Y3N9 whole entry L202S) above, with S202C counted along it
- protocolDetails: GloSensor assay, OR2W1 L202C
- Assay type: cell-based
- protocolConditions: read-out: EC50 in the absence of Cu^2+
propertyName: EC50 (µM)

{"columns": ["compound", "numericResult"],
 "data": [
  ["SCCc1ccccc1", 65.1],
  ["CCCC(S)CCOC(C)=O (centres unmarked) [3-Mercaptohexyl acetate, 3-mercaptohexyl acetate]", 98.9]
]}

###

- measurementTarget: OR1A1 wt (Homo sapiens, UniProt Q9P1Q5)
- Construct: 39aa rho-tag; expressed in transfected cells; host or cells: NxG 108CC15 or HEK-293 cells
- Sequence (Q9P1Q5 whole entry): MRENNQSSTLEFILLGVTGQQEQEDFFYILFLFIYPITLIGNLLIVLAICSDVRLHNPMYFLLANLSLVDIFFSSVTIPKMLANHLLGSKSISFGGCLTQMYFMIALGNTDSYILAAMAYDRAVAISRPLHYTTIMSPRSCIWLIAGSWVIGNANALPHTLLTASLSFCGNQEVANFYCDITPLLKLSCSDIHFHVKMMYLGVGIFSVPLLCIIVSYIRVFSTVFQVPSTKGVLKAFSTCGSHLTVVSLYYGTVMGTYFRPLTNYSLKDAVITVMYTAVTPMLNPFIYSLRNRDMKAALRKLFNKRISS
- protocolDetails: cAMP-luminescence GloSensor assay, recombinant OR1A1 wt
- Type: cell-based
- protocolConditions: OR1A1 wt; read-out: EC50 in the absence of Cu^2+
pEC50: −log10 of the molar value.
// reported pEC50 for each item listed

{"columns": ["compound", "pEC50"],
 "data": [
  ["SCCc1ccccc1", 3.69],
  ["C=C(C)[C@@H]1CC=C(C)C(=O)C1 [(R)-(-)-Carvone, (R)-(-)-carvone]", 3.90],
  ["CCCC(S)CCOC(C)=O (stereo not drawn) [3-Mercaptohexyl acetate, 3-mercaptohexyl acetate]", 3.39]
]}

Each recorded value in this set is attributed to paper PMC7256108.
